# Tested on: Ba/F3 EGFR Del19/C797S cells
# test protocol: Cell proliferation inhibition assay (Cell Titer-Glo), Ba/F3 EGFR Del19/C797S
# Type: cell-based
# experimental setup: 72 hours, read-out: Ba/F3 EGFR Del19_C797S IC50
observed property: IC50 (nM)
Reply numerically in nM, unit not repeated.

For the compound shown here, CC(C)c1ccc(C2CC(CS(C)(=O)=O)C2)c2cnc(Nc3ccnc(-c4cn(C)nc4Cl)n3)cc12 (centres unmarked) , give the reported IC50.
30

Give its IC50 value. Item: CCc1nn(C)cc1-c1nccc(Nc2cc3c(C(C)C)ccc(N4C[C@H](CS(C)(=O)=O)[C@H]4C)c3cn2)n1
26

What value of IC50 has been recorded for this entry: C#CCn1cc(-c2nccc(Nc3cc4c(C(C)C)ccc(N5C[C@H](CS(C)(=O)=O)[C@H]5C)c4cn3)n2)cn1
49

Which IC50 value is on record for CC(O)Cn1cc(-c2nccc(Nc3cc4c(C(C)C)ccc(N5C[C@H](CS(C)(=O)=O)[C@H]5C)c4cn3)n2)c(Cl)n1 (some centres unmarked) ?
17

For COC1(n2cc(-c3nccc(Nc4cc5c(C(C)C)ccc(N6C[C@H](CS(C)(=O)=O)[C@H]6C)c5cn4)n3)cn2)CC1 , what is its reported IC50?
41

Please report the recorded IC50 for CC(C)c1ccc(N2C[C@H](CS(C)(=O)=O)[C@H]2C)c2cnc(Nc3ccnc(-c4cn(CCO)nc4Cl)n3)cc12 .
24

Sample C=CCn1cc(-c2nccc(Nc3cc4c(C(C)C)ccc(N5C[C@H](CS(C)(=O)=O)[C@H]5C)c4cn3)n2)cn1 — what was its IC50?
41

Suppose we examine the compound CC(C)c1ccc(N2C[C@H](CS(C)(=O)=O)[C@H]2C)c2cnc(Nc3ccnc(-c4cnn([C@@H](C)C(F)(F)F)c4)n3)cc12 [Example 22A] ; what IC50 value has been reported?
95

Bench note: what IC50 did COCC1(Cn2cc(-c3nccc(Nc4cc5c(C(C)C)ccc(N6C[C@H](CS(C)(=O)=O)[C@H]6C)c5cn4)n3)cn2)CC1 show?
78

Query (compound): CC(C)c1ccc(N2C[C@H](CS(C)(=O)=O)[C@H]2C)c2cnc(Nc3ccnc(-c4c[nH]nc4Cl)n3)cc12 ; field requested: IC50
60

Quick one: IC50 of CC(C)c1ccc(N2C[C@H](CS(C)(=O)=O)[C@H]2C)c2cnc(Nc3ccnc(-c4cn(CCC#N)nc4Cl)n3)cc12 ?
20

What value of IC50 has been recorded for this entry: CC(C)c1ccc(N2C[C@H](CS(C)(=O)=O)[C@H]2C)c2cnc(Nc3ccnc(-c4cnn(CC(F)(F)F)c4)n3)cc12
78

Which measured IC50 value corresponds to Cc1nn(C)cc1-c1nccc(Nc2cc3c(C(C)C)ccc(N4C[C@H](CS(=O)(=O)N(C)C)[C@H]4C)c3cn2)n1 ?
24

# lookup: IC50 of [2H]C([2H])([2H])n1cc(-c2nccc(Nc3cc4c(C(C)C)ccc(N5C[C@H](CS(C)(=O)=O)[C@H]5C)c4cn3)n2)c([N+](=O)[O-])n1
62

Value lookup for IC50; key = CC(C)c1ccc(N2C[C@H](CS(C)(=O)=O)[C@H]2C)c2cnc(Nc3ccnc(-c4cn(C5CC5)nc4Cl)n3)cc12
10

What does the data say about its IC50? Entry: CC(C)c1ccc(N2C[C@H](CS(C)(=O)=O)[C@H]2C)c2cnc(Nc3ccnc(-c4cnn(CC5CCO5)c4)n3)cc12 (some centres unmarked)
96

Entry CC(C)c1ccc(N2CC(CC#N)C2)c2cnc(Nc3ccnc(-c4cnn(S(=O)(=O)C5CC5)c4)n3)cc12 : reported IC50 = ?
70

# input compound: CC(C)c1ccc(N2CC(CS(C)(=O)=O)C2)c2cnc(Nc3ccnc(-c4cnn(S(=O)(=O)C5CC5)c4)n3)cc12 ; wanted: its IC50
14

Reported IC50 for CC(C)c1ccc(N2C[C@H](CS(C)(=O)=O)[C@H]2C)c2cnc(Nc3ccnc(-c4cnn(C5CCN(C)CC5)c4)n3)cc12 : what is it?
54

GET /values?readout=IC50&item= CC(C)c1ccc(N2C[C@H](CS(C)(=O)=O)[C@H]2C)c2cnc(Nc3ccnc(-c4cnn(C)c4)n3)cc12
29

Could you share which IC50 value was measured for CC(C)c1cnc(N2CC(CS(C)(=O)=O)C2)c2cnc(Nc3ccnc(-c4cnn(S(=O)(=O)C5CC5)c4)n3)cc12 ?
10

If you can, please state the reported IC50 value of CC(C)c1ccc(N2C[C@H](CS(C)(=O)=O)[C@H]2C)c2cnc(Nc3ccnc(-c4cn(CCN)nc4Cl)n3)cc12 .
96

# query: IC50 of entry Cc1nn(CCO)cc1-c1nccc(Nc2cc3c(C(C)C)ccc(N4C[C@H](CS(C)(=O)=O)[C@H]4C)c3cn2)n1
52

# query: IC50 of entry CC(C)c1ccc(N2C[C@H](CS(C)(=O)=O)[C@H]2C)c2cnc(Nc3ccnc(-c4cn(CC(O)CF)nc4Cl)n3)cc12 (some centres unmarked)
33

Given the compound Cc1nn(C)cc1-c1nccc(Nc2cc3c(C(C)C)ccc(N4CC(CS(C)(=O)=NC#N)C4)c3cn2)n1 (centres unmarked) , what is its reported IC50?
74

Could you tell me which IC50 is on file for [2H]C([2H])([2H])n1cc(-c2nccc(Nc3cc4c(C(C)C)ccc(N5C[C@H](CS(C)(=O)=O)[C@H]5C)c4cn3)n2)c(F)n1 ?
84

###

# target system: EGFR L858R/T790M/C797S mutant kinase (Homo sapiens (Human), UniProt P00533, C797S/L858R/T790M)
# Sequence (P00533 25-1210 T790M/C797S/L858R): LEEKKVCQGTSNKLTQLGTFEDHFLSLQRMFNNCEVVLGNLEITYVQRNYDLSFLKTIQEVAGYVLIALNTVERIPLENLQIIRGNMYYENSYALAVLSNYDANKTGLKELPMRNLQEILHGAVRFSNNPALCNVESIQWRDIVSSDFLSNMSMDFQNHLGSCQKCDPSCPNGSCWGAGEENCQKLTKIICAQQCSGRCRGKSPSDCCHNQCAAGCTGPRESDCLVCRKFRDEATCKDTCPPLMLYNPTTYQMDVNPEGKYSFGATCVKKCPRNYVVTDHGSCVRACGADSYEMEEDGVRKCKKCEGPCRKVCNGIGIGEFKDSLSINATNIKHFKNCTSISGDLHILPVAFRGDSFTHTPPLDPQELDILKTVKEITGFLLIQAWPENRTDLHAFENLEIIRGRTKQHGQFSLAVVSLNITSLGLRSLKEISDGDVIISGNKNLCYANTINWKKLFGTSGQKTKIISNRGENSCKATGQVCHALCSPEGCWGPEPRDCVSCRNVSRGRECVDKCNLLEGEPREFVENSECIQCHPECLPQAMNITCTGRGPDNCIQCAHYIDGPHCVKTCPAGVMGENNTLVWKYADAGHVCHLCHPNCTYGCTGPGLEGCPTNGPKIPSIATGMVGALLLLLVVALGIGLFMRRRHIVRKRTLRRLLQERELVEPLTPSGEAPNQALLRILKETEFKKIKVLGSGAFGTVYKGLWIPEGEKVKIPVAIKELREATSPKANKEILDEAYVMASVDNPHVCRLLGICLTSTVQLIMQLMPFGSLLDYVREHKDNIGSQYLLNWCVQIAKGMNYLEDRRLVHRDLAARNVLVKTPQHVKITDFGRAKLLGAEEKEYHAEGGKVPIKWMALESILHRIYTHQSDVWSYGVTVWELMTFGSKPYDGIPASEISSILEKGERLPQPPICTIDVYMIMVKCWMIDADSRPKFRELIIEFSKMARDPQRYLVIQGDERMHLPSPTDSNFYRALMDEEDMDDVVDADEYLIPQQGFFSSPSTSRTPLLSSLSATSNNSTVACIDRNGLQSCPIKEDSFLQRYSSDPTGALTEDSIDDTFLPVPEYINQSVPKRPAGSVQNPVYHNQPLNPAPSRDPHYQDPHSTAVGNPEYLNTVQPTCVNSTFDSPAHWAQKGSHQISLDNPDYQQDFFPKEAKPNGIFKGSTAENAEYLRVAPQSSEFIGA
# test protocol: HTRF kinase assay, EGFR L858R/T790M/C797S mutant kinase
# experimental setup: 120 minutes at room temperature
Decision: IC50 beneath 0.7 nM gives fulfilled; IC50 meeting or exceeding 0.7 nM gives not fulfilled.

Determine if CC(C)c1ccc(N2C[C@H](CS(C)(=O)=O)[C@H]2C)c2cnc(Nc3ccnc(-c4cnn(CC(F)(F)F)c4)n3)cc12 shows IC50 strictly lower than 0.7 nM.
not fulfilled

In the record for CC(C)c1ccc(N2C[C@H](CS(C)(=O)=O)[C@H]2C)c2cnc(Nc3ccnc(-c4cnn(CCF)c4)n3)cc12 , is IC50 less than 0.7 nM?
not fulfilled

Given CC(C)c1ccc(N2C[C@H](CS(C)(=O)=O)[C@H]2C)c2cnc(Nc3ccnc(-c4cnn(C)c4)n3)cc12 , is recorded IC50 strictly lower than 0.7 nM?
fulfilled

I'd appreciate it if you could check whether CC(C)c1ccc(N2C[C@H](CS(C)(=O)=O)[C@H]2C)c2cnc(Nc3ccnc(-c4cnn(CC5CCO5)c4)n3)cc12 (some centres unmarked) has IC50 smaller than 0.7 nM.
fulfilled

###

# target system: EGFR del19/T790M/C797S mutant kinase (Homo sapiens, UniProt P00533, C797S/DEL746-750/T790M)
# Sequence (P00533 with tags, fused parts or gaps C797S/DEL746-750/T790M limits assumed): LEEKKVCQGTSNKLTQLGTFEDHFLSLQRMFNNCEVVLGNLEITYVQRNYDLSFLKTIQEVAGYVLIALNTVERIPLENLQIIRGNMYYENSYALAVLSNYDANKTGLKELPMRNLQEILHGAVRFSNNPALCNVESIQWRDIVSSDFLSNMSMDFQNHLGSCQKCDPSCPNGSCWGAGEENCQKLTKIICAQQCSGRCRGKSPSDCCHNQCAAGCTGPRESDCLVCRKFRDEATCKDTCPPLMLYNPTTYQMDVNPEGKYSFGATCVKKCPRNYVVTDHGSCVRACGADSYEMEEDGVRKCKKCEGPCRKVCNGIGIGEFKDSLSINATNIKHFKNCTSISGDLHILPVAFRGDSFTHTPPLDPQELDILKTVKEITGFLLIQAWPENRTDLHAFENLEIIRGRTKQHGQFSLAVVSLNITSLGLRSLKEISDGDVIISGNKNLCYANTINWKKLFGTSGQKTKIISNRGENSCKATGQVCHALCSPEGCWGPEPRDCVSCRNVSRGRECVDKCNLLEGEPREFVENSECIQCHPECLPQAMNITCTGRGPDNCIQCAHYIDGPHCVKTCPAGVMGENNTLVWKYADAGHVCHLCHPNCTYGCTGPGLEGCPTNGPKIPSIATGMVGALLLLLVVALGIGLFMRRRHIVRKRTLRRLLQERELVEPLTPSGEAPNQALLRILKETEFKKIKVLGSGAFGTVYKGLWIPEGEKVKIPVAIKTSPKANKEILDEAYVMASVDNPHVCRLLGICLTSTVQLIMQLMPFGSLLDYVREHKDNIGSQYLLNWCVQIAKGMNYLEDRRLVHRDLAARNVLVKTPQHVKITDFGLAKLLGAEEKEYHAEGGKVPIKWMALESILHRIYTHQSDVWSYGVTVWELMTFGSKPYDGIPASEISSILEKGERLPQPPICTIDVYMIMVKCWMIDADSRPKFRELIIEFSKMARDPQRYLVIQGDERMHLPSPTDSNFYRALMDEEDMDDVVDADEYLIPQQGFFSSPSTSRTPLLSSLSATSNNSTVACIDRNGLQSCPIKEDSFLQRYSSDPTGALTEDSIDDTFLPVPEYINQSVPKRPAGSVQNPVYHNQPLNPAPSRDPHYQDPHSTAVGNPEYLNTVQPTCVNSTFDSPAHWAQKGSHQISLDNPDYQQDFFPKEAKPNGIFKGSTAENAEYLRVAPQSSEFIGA
# test protocol: HTRF kinase assay, EGFR del19/T790M/C797S mutant kinase
# experimental setup: 120 minutes at room temperature
Assignment: determine reported pIC50 for the given compounds.
# reply with the number alone; pIC50 is -log10 of concentration in mol/L

Give its pIC50 value. Item: CC(C)c1ccc(N2C[C@H](CS(C)(=O)=O)[C@H]2C)c2cnc(Nc3ccnc(-c4cnn(C5CCN(C)CC5)c4)n3)cc12 [Example 14]
8.44

What value of measured pIC50 is listed for CC(C)c1ccc(N2C[C@H](CS(C)(=O)=O)[C@H]2C)c2cnc(Nc3ccnc(-c4cnn(C5COC5)c4)n3)cc12 [Example 20] ?
8.21

Can you look up the measured pIC50 of CC(C)c1ccc(N2CC(CS(C)(=O)=O)C2)c2cnc(Nc3ccnc(-c4cnn(S(=O)(=O)C5CC5)c4)n3)cc12 [Example 1] for me?
9.24

Item CC(C)c1ccc(N2C[C@H](CS(C)(=O)=O)[C@H]2C)c2cnc(Nc3ccnc(-c4cncs4)n3)cc12 [Example 54] has what recorded pIC50?
8.12

Recorded pIC50 of CC(C)c1ccc(N2C[C@H](CS(C)(=O)=O)[C@H]2C)c2cnc(Nc3ccnc(-c4cn[nH]c4)n3)cc12 [Example 17] , please.
8.52

I am curious: what pIC50 value has been reported for CC(C)c1ccc(N2C[C@H](CS(C)(=O)=O)[C@H]2C)c2cnc(Nc3ccnc(-c4cnn(CC5(C#N)CC5)c4)n3)cc12 [Example 19] ?
8.60

Name the recorded pIC50 for CC(C)c1cnc(N2CC(CS(C)(=O)=O)C2)c2cnc(Nc3ccnc(-c4cnn(S(=O)(=O)C5CC5)c4)n3)cc12 [Example 3] .
8.03

Query (compound): CC(C)c1ccc(N2C[C@H](CS(C)(=O)=O)[C@H]2C)c2cnc(Nc3ccnc(-c4cnn(C5CC5)c4)n3)cc12 [Example 15] ; field requested: pIC50
8.60

So what's the measured pIC50 for this one? CC(C)c1ccc(N2C[C@H](CS(C)(=O)=O)[C@H]2C)c2cnc(Nc3ccnc(-c4cnn(CC5(CC#N)CC5)c4)n3)cc12 [Example 18]
8.04

Origin of values: patent US20250368616A1
